Provide the recorded AIRE transcriptional activation functional score for the entries that follow.
B1: library; numbered along this chain (parent)
chain: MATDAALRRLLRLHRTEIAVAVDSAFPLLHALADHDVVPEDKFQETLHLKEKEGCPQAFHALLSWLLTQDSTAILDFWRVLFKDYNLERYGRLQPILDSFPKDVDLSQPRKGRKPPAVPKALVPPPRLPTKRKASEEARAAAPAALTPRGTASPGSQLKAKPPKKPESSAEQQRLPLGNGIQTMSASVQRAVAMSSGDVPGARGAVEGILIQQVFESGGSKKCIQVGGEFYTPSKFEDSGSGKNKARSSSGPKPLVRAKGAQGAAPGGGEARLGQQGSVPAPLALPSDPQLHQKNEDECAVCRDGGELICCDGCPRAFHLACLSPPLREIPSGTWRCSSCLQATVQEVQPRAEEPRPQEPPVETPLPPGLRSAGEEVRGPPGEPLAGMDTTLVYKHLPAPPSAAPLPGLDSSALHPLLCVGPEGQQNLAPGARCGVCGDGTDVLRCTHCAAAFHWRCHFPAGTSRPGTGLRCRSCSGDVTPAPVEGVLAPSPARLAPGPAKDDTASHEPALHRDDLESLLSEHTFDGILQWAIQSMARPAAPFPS

- Variants of: B1
- test-details: AIRE transcriptional activation functional score (insulin promoter-GFP; nonsense median 0, synonymous median 1) (normalised score); higher = higher AIRE activity (more reporter activation)
- measurement-setup: with insulin promoter-GFP reporter in HEK293
No unit in the answer, only the number.

Query (variant): "P124A" ; field requested: AIRE transcriptional activation functional score
0.614

Query (variant): "A31Y" ; field requested: AIRE transcriptional activation functional score
1.22

Query (variant): "L128M" ; field requested: AIRE transcriptional activation functional score
1.32

Query (variant): "G228Y" ; field requested: AIRE transcriptional activation functional score
0.381

Query (variant): "N244K" ; field requested: AIRE transcriptional activation functional score
-0.184

Query (variant): "P162N" ; field requested: AIRE transcriptional activation functional score
-1.7

Query (variant): "R113F" ; field requested: AIRE transcriptional activation functional score
1.12

Query (variant): "P109V" ; field requested: AIRE transcriptional activation functional score
0.635

Query (variant): "E171H" ; field requested: AIRE transcriptional activation functional score
1.64

Query (variant): "S521V" ; field requested: AIRE transcriptional activation functional score
0.258

Query (variant): "Q290A" ; field requested: AIRE transcriptional activation functional score
0.939

Query (variant): "S491M" ; field requested: AIRE transcriptional activation functional score
1.31

Query (variant): "F26D" ; field requested: AIRE transcriptional activation functional score
0.00972

Query (variant): "T183I" ; field requested: AIRE transcriptional activation functional score
0.211

Query (variant): "R132E" ; field requested: AIRE transcriptional activation functional score
0.0732

Query (variant): "A482V" ; field requested: AIRE transcriptional activation functional score
1.23

Query (variant): "G208N" ; field requested: AIRE transcriptional activation functional score
0.00613

Query (variant): "K243G" ; field requested: AIRE transcriptional activation functional score
1.03

Query (variant): "E485V" ; field requested: AIRE transcriptional activation functional score
0.951

Query (variant): "A246P" ; field requested: AIRE transcriptional activation functional score
1.05

Query (variant): "F59W" ; field requested: AIRE transcriptional activation functional score
0.208

Query (variant): "Y231S" ; field requested: AIRE transcriptional activation functional score
0.49
